biological target: ATX (Homo sapiens, UniProt Q13822)
Recorded IC50, one value per entry.

{"Compound": "CCc1nc2sc(N3CCCC(N(C)C(N)=O)C3)nn2c1N(C)c1nc(-c2ccc(F)cc2)c(C#N)s1 (stereo not shown)", "Study Target": "ATX (Homo sapiens, UniProt Q13822)", "IC50": "0.01 to 100 nM"}
{"Compound": "CCc1nc2sc(N3CC[C@@H](N(CC)CC(=O)N4CC(O)C4)C3)nn2c1N(C)c1nc(-c2ccc(F)cc2)c(C#N)s1", "Study Target": "ATX (Homo sapiens, UniProt Q13822)", "IC50": "100 to 500 nM"}
{"Compound": "CCc1nc2sc(C3CCN(C(N)=O)CC3)nn2c1N(C)c1nc(-c2ccc(F)cc2)c(C#N)s1", "Study Target": "ATX (Homo sapiens, UniProt Q13822)", "IC50": "100 to 500 nM"}
{"Compound": "CCc1nc2sc(N3CC[C@H](N(C)C(=O)N4CC(O)C4)C3)nn2c1N(C)c1nc(-c2ccc(F)cc2)c(C#N)s1", "Study Target": "ATX (Homo sapiens, UniProt Q13822)", "IC50": "0.01 to 100 nM"}
{"Compound": "CCc1nc2sc(N3CCN(S(C)(=O)=O)CC3)nn2c1N(C)c1nc(-c2ccc(F)cc2)c(C#N)s1", "Study Target": "ATX (Homo sapiens, UniProt Q13822)", "IC50": "≥ 1000 nM"}
{"Compound": "CCc1nc2sc(N3CC[C@@H](N(C)CC(=O)N4CCOCC4)C3)nn2c1N(C)c1nc(-c2ccc(F)cc2)c(C#N)s1", "Study Target": "ATX (Homo sapiens, UniProt Q13822)", "IC50": "100 to 500 nM"}

Turning now to a further compound:
Entry CCc1nc2sc(N3CC[C@@H](N(C)C(N)=O)C3)nn2c1N(C)c1nc(-c2ccc(F)cc2)c(C#N)s1 , IC50 reported as 0.01 to 100 nM
